pKi: −log10 of the molar value.
Quick record: pKi, 5-HT3 receptor (Homo sapiens).
ENDPOINT NAME: pKi

> print(dat)
                              record.smiles  measured
1  COc1cccc2c(C(=O)N[C@H]3C[C@H]4CCC[C@@H](C3)N4C)nn(C)c12      6.92
2  O=C(O[C@H]1C[C@H]2CC[C@@H](C1)N2Cc1ccccc1)c1c[nH]c2ccccc12      5.84
3  COc1ccc2[nH]cc(C(=O)O[C@H]3C[C@H]4CC[C@@H](C3)N4C)c2c1      7.02
4  COc1cccc2c(C(=O)O[C@H]3C[C@H]4CC[C@@H](C3)N4C)c[nH]c12      7.52
5  COc1ccc2c(C(=O)O[C@H]3C[C@H]4CC[C@@H](C3)N4C)c[nH]c2c1      6.74

---

Target: 5-HT3 receptor (Homo sapiens)
Construct: expressed in transfected cells; host or cells: HEK293, transient, pcDNA3.1
Sequence (P46098 24-478): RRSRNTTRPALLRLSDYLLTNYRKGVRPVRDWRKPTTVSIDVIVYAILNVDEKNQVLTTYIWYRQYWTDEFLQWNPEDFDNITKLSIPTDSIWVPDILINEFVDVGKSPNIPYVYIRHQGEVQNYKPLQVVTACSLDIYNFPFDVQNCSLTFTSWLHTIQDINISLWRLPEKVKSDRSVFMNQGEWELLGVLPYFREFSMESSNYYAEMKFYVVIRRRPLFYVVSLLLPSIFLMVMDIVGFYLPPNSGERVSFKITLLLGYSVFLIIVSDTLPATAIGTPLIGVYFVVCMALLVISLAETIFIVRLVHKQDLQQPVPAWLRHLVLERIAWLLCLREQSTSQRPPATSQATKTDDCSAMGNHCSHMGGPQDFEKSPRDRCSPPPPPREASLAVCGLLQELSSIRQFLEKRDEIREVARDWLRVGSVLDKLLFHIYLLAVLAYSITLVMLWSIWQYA
Test: Affinities from binding tropisetron, granisetron and their analogues at 5-HT3 receptors
Settings: 5-HT3 receptor
Would you please tag the item Met when its pKi Mean ± SEM is 7 or above, and Not met when it is below?

> print(dat)
                              record.smiles              target.under.test    class
1  O=C(O[C@H]1C[C@H]2CC[C@@H](C1)N2Cc1ccccc1)c1c[nH]c2ccccc12  5-HT3 receptor (Homo sapiens)  Not met
2  COc1ccc2c(C(=O)O[C@H]3C[C@H]4CC[C@@H](C3)N4C)c[nH]c2c1  5-HT3 receptor (Homo sapiens)  Not met
3  COc1cccc2c(C(=O)O[C@H]3C[C@H]4CC[C@@H](C3)N4C)c[nH]c12  5-HT3 receptor (Homo sapiens)      Met

---

molecular target: α7 nACh receptor (UniProt P22770+P23979, M226I/T225I)
Sequence (P22770+P23979 fused P22770:T225I/P22770:M226I): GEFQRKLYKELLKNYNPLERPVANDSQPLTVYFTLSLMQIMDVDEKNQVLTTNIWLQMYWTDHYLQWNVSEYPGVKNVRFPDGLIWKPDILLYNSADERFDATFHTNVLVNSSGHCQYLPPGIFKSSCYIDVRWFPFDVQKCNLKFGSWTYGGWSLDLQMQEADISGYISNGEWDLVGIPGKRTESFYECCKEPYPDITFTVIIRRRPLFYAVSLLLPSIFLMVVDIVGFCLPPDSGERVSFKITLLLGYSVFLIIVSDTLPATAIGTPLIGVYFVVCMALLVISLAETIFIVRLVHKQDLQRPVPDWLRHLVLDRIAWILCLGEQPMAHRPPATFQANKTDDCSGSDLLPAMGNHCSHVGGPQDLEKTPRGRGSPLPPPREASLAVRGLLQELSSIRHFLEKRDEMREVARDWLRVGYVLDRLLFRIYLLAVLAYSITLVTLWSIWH
ENDPOINT NAME: Kd (nM)

> print(dat)
                                   compound  measured
1  Clc1ccc(C2CC3CCC2N3)cn1 (stereo not shown) [[^3H]epibatidine]      8.81

---

biological target: 5-HT3 receptor (Homo sapiens, UniProt P46098); construct: expressed in transfected cells; host or cells: HEK293, transient, pcDNA3.1; assay: Affinities from binding tropisetron, granisetron and their analogues at 5-HT3 receptors; settings: Ki relative to parent scaffold
ENDPOINT NAME: log10 Fold change (log10 of the value in fold)

> print(dat)
                                   compound      endpoint.name  measured
1  COc1cccc2c(C(=O)N[C@H]3C[C@H]4CCC[C@@H](C3)N4C)nn(C)c12 [Compound 7]  log10 Fold change      2.41
2  COc1cccc2c(C(=O)O[C@H]3C[C@H]4CC[C@@H](C3)N4C)c[nH]c12 [Compound 3]  log10 Fold change      1.62
3  COc1ccc2[nH]cc(C(=O)O[C@H]3C[C@H]4CC[C@@H](C3)N4C)c2c1 [Compound 1]  log10 Fold change      2.12
4  O=C(O[C@H]1C[C@H]2CC[C@@H](C1)N2Cc1ccccc1)c1c[nH]c2ccccc12 [Compound 4]  log10 Fold change      3.30
5  COc1ccc2c(C(=O)O[C@H]3C[C@H]4CC[C@@H](C3)N4C)c[nH]c2c1 [Compound 2]  log10 Fold change      2.40
